Target: T1, di cyNKG2D ECD Fc avi (cynomolgus, biotinylated at the avi-tag)
T1 construct: Dimeric fusion of cynomolgus NKG2D ECD to the C-terminus of an avi-tagged human IgG1 Fc; also called recombinant cynomolgus NKG2D
T1 sequence (chain, as listed by the source limits assumed): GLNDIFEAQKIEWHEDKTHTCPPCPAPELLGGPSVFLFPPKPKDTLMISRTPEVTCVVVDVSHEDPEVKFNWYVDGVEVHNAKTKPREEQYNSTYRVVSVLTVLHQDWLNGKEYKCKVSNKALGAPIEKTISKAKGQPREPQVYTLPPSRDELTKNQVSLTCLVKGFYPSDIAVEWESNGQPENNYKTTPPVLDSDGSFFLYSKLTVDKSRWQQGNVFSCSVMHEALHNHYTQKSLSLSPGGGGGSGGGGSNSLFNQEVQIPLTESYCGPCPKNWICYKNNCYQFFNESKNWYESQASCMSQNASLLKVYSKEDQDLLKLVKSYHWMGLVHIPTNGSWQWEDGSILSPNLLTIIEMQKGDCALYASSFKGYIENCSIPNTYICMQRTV
Assay: ELISA; biotinylated antigen on streptavidin plate
quantity.name: EC50 (nM)

anti-NKG2D antibody clone 013 (antibody, V domains shown, From transgenic rabbits) VH: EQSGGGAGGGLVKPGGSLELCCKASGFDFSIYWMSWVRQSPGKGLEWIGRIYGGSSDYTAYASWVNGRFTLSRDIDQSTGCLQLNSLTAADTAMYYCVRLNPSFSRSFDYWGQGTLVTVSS VL: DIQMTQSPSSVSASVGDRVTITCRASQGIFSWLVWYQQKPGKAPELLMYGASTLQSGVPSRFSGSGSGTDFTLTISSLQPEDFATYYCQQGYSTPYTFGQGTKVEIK : 0.4
anti-NKG2D antibody clone 018 (antibody, V domains shown, From transgenic rabbits) VH: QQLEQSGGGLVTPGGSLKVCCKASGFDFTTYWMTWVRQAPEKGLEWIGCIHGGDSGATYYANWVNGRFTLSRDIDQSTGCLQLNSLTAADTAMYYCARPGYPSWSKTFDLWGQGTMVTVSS VL: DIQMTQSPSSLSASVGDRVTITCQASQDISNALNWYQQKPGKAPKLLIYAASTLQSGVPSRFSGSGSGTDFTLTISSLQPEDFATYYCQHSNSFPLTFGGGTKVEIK : 0.4
anti-NKG2D antibody clone 296 (antibody, V domains shown, From transgenic rabbits) VH: EVQLLESGGGLVQPGGSLRLSCAASGFTFSSYAMSWVRQAPGKGLEWVSAIGIGGGGTYYADSVKGRFTISRDNSKNTLYLQMNSLRAEDTAVYHCAKGASFDFINFFPYWGQGTLVTVSS VL: DIQMTQSPSSLSASVGDRVTITCRASQGISNDLAWYQQKPGKAPKLLIYAASSLQSGVPSRFSGSGSGTDFTLTISSLQPEDFATYYCQQTYSTPLTFGGGTKVEIK : 0.7
anti-NKG2D antibody clone 320 (antibody, V domains shown, From transgenic rabbits; also called 320 IgG) VH: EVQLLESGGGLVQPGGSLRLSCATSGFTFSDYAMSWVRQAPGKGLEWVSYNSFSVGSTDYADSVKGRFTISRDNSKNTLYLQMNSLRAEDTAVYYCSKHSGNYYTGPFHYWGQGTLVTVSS VL: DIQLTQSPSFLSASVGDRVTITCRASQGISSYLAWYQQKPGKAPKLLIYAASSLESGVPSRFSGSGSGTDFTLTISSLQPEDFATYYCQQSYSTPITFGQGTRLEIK : 0.4
